- test.target: Serine/threonine-protein kinase/endoribonuclease IRE1 (Homo sapiens, UniProt O75460)
- Sequence (O75460 whole entry, the tested form may be a part): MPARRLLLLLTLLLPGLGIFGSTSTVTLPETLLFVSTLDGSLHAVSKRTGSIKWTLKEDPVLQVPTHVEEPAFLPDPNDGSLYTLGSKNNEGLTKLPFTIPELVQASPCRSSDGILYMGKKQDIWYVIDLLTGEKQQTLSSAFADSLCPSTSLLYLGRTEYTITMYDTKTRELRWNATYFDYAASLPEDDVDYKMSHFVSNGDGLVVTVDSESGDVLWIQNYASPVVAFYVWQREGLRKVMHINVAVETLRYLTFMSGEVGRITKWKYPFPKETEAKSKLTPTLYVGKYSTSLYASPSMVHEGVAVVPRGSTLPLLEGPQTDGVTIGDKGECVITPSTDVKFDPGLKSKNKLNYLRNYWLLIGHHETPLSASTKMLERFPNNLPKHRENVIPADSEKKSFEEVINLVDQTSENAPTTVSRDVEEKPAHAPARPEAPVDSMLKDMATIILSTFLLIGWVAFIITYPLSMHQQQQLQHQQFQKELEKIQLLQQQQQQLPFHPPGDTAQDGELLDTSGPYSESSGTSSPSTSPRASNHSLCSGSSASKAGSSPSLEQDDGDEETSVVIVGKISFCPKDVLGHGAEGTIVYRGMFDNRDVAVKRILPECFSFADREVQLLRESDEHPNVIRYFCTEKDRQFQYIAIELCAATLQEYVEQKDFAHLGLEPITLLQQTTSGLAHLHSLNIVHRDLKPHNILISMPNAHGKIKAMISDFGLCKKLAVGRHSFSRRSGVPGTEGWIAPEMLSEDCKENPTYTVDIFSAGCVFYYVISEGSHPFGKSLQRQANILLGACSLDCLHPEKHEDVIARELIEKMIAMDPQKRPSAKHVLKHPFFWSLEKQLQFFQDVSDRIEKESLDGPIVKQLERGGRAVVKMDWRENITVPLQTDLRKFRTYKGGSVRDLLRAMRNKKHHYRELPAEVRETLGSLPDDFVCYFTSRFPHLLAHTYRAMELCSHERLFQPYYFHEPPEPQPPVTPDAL
- method.summary: Inhibition of His-tagged IRE1alpha (G547 to L977 residues) (unknown origin) expressed in Sf9 cells preincubated with anti-His Europium labeled antibody for 1 hr prior to compound addition followed by tracer 236 addition and measured after 1 hr by TR-FRET assay
pIC50: −log10 of the molar value.
measurement.kind: pIC50

{"compound": "Cc1c(Oc2ncccc2-c2ccnc(N[C@H]3CCCNC3)n2)cc(F)c(NS(=O)(=O)Cc2ccccc2)c1F", "pIC50": 9.54}
{"compound": "O=S(=O)(Cc1ccccc1)Nc1c(F)cc(Oc2ncccc2-c2ccnc(N[C@@H]3CNC[C@@H](F)C3)n2)c(F)c1F", "pIC50": 9.57}
{"compound": "Cc1ccc2c(NS(=O)(=O)c3ccccc3Cl)cccc2c1Oc1ncccc1-c1ccnc(N[C@H]2CCCOC2)n1", "pIC50": 7.38}
{"compound": "Cc1ccc(CNC(=O)N2CCC[C@]3(CCN(Cc4ccc(Cl)c(Cl)c4)C3)C2)cc1", "pIC50": 6.18}

a: Cc1ccc2c(NS(=O)(=O)CCC3CC3)cccc2c1Oc1ncccc1-c1ccnc(N[C@H]2CCCNC2)n1
b: Cc1ccc2c(NS(=O)(=O)c3ccccc3Cl)cccc2c1Oc1ncccc1-c1ccnc(N[C@@H]2CNCC(F)(F)C2)n1
c: Cc1cc(NS(=O)(=O)Cc2ccccc2)c2ccccc2c1Oc1ncccc1-c1ccnc(N[C@H]2CCCNC2)n1
Please order the records by their reported pIC50, lowest number first. Order the labels as requested and give them as your answer.
b, a, c

P: Cc1ccc2c(NS(=O)(=O)c3ccccc3Cl)cccc2c1Oc1ncccc1-c1ccnc(NC2CCC(=O)NC2)n1 (stereo not drawn)
Q: Cc1cc(NS(=O)(=O)c2ccccc2Cl)c2ccccc2c1Oc1ncccc1-c1ccnc(N[C@H]2CC[C@H](N)CC2)n1
Of P and Q , which carries the smaller reported pIC50 figure? Give the label of your selection.
P
(P: 7.19, Q: 9.07)

a: Cc1ccc2c(NS(=O)(=O)c3ccccc3Cl)cccc2c1Oc1ncccc1-c1ccnc(N[C@@H]2CCCNC2)n1
b: Cc1cc(NS(=O)(=O)Cc2ccccc2)c(F)cc1Oc1ncccc1-c1ccnc(N[C@H]2CCCNC2)n1
c: Cc1ccc2c(NS(=O)(=O)c3ccccc3Cl)cccc2c1Oc1ncccc1-c1ccnc(N[C@H]2CCCNC2)n1
Please produce an ascending ranking of these compounds based on pIC50. Answer by listing the labels in the requested order.
a, b, c
(a: 7.34, b: 8.68, c: 9.32)

* * *

- test.target: Serine/threonine-protein kinase/endoribonuclease IRE1 (Homo sapiens)
- method.summary: Inhibition of His-tagged IRE1alpha (G547 to L977 residues) (unknown origin) expressed in Sf9 cells preincubated with anti-His Europium labeled antibody for 1 hr prior to compound addition followed by tracer 236 addition and measured after 1 hr by TR-FRET assay
measurement.kind: IC50 (pM)

{"structure.smiles": "O=S(=O)(Cc1ccccc1)Nc1c(F)cc(Oc2ncccc2-c2ccnc(N[C@@H]3CNC[C@H](CF)C3)n2)c(F)c1F", "measurement.kind": "IC50", "result.number": 260}
{"structure.smiles": "Cc1ccc2c(NS(=O)(=O)Cc3ccccc3)cccc2c1Oc1ncccc1-c1ccnc(N[C@H]2CCCNC2)n1", "measurement.kind": "IC50", "result.number": 350}

a: Cc1ccc2c(NS(=O)(=O)CCC(F)(F)F)c(F)ccc2c1Oc1ncccc1-c1ccnc(N[C@H]2CCCNC2)n1
b: C[C@@]1(F)CNC[C@@H](Nc2nccc(-c3cccnc3Oc3cc(F)c(NS(=O)(=O)Cc4ccccc4)c(F)c3F)n2)C1
Pick one, a or b : lowest reported IC50. Lab log: write the label of the selected item as the result.
a

1: O=S(=O)(Cc1ccccc1)Nc1ccc(Oc2ncccc2-c2ccnc(N[C@H]3CCCNC3)n2)c(F)c1F
2: Cc1ccc2c(NS(=O)(=O)C3CCCC3)cccc2c1Oc1ncccc1-c1ccnc(N[C@H]2CCCNC2)n1
Field: lower IC50 | Options: 1 / 2 Respond using the label that marks the chosen record.
1
(1: 980 pM, 2: 3300 pM)

A: Cc1ccc2c(Oc3ncccc3-c3ccnc(N[C@H]4CCCNC4)n3)c(C)ccc2c1NS(=O)(=O)CCC(F)(F)F
B: CC(C)(C)c1nc(-c2ccc(NC(=O)Nc3cccc(C(F)(F)F)c3)c3ccccc23)c2c(N)nccn12
Please indicate which entry, A or B , has the lower recorded IC50 value. Answer format: the label of the selected item.
A
(A: 660 pM, B: 36000 pM)
